Target: 3',5'-cyclic-AMP phosphodiesterase 4D (Homo sapiens)
Sequence (Q08499 whole entry): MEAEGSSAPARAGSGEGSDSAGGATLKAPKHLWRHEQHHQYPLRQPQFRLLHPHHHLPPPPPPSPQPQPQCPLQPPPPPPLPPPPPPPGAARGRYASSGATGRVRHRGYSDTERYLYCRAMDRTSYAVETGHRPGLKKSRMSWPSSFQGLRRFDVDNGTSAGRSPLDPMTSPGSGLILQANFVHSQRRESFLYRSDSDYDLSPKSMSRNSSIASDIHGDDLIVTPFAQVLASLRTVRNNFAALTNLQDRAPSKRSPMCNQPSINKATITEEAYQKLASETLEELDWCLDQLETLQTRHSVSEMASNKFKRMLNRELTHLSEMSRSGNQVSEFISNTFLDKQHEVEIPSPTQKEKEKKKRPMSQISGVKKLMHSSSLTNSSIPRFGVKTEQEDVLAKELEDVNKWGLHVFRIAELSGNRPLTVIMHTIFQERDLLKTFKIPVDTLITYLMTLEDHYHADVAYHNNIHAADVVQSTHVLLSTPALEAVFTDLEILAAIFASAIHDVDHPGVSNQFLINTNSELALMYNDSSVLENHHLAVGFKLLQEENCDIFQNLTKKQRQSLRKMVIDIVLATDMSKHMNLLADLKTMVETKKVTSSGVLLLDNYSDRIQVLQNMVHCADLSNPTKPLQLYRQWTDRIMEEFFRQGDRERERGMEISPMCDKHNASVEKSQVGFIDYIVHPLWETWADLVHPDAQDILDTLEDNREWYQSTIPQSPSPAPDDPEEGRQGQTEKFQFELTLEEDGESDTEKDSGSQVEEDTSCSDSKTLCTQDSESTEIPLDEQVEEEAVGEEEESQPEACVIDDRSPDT
Test: Inhibition of full-length PDE4D2 (unknown origin) using FAM-cAMP as substrate at 1 uM preincubated with compound for 15 mins followed by substrate addition and measured after 30 mins by fluorescence polarization based IMAP assay relative to control
Conditions: time 45.0 min
Would you kindly list inhibition for each of these molecules?
Respond with the bare value in %.

Q) Reported inhibition, molecule O=C(Nc1ccccc1)c1coc(-c2ccc(OC(F)F)c(OCC3CC3)c2)n1 : ____
A) 38.8

Q) Queued: O=C(NCc1cnccn1)c1c[nH]c(-c2ccc(OC(F)F)c(OCC3CC3)c2)n1
A) 95.9

Q) Try the molecule O=C(O)c1coc(-c2ccc(OC(F)F)c(OCC3CC3)c2)n1
A) 46.2

Q) Another molecule to look at: Cn1cc(NC(=O)c2c[nH]c(-c3ccc(OC(F)F)c(OCC4CC4)c3)n2)cn1
A) 78.8

Q) And what about the molecule O=C(NCc1ccc(F)cc1F)c1coc(-c2ccc(OC(F)F)c(OCC3CC3)c2)n1 ?
A) 67.6

Q) Proceed to COc1cc(-c2nc(C(=O)NCc3c(F)cccc3F)c[nH]2)cc(OC)c1OC(F)F
A) 33.3

Q) Now consider O=C(Nc1ccc2[nH]ccc2c1)c1c[nH]c(-c2ccc(OC(F)F)c(OCC3CC3)c2)n1 .
A) 83.5

Q) Please give the result for COC(=O)c1coc(-c2ccc(OC(F)F)c(OCC3CC3)c2)n1 too.
A) 70.1
